- Tested on: SK-MEL-2
- Experiment Description: NCI tumour cell line growth inhibition, 48 h
The source made the active and inactive calls. No stated cut-off is given here; in the data, active = GI50 up to about 1.1 µM and inactive = higher.
Use one of these outcomes when replying: True (active), False (inactive)

Some solved entries appear below for comparison.
CC[C@@]1(O)C(=O)OCc2c1cc1n(c2=O)Cc2cc3cc4c(cc3nc2-1)OCO4
True
COc1ccc(OC/C(N)=N/NC(=O)c2ccncc2)cc1
False
CCCCN1CSC(=S)N(Cc2ccccc2)C1
False
COc1cc2c(cc1O)CCN[C@@]21CS[C@H]2c3c(OC(C)=O)c(C)c4c(c3C(COC1=O)N1C2C2NC(Cc3cc(C)c(OC)c(O)c32)[C@@H]1C#N)OCO4 (stereo not given in full)
True
COc1cc(OC)c(OC)cc1/C=C1\C=Cc2ccccc21
False
O=c1[nH]n2c(=O)cc[nH]c2c1-c1nnns1
False

Ask: Tell me the assay call for `Cc1nc2c(n1-c1ccc(Br)cc1)C(=O)c1ccccc1C2=O` please.
Result: False

Ask: Same thing, different compound: CCCCCCOC(=O)C(N)Cc1ccc(OC)cc1 (stereo not given)
Result: False

Ask: Same thing, different compound: `Clc1ccc2c(NCCCCCCNc3ccnc4cc(Cl)ccc34)ccnc2c1`
Result: False

Ask: Same thing, different compound: `CCOC(=O)c1cc(=O)oc2c1N(C)c1ncccc1N2`
Result: False

----------
Attribute: GI50
- System: KM-20L2
- Experiment Description: NCI tumour cell line growth inhibition, 48 h
Activity calls are given as the source filed them. Rule as the data show it: active = GI50 up to about 1.1 µM and inactive = higher.

Worked examples, 5 molecules total:
Nc1ccc(C(=O)NN2C(=O)C(Cl)C2c2cc(Br)ccc2O)cc1 (stereo not drawn)
> 100 µM (inactive)
O=C(OCCOCBr)c1ccccc1
> 100 µM (inactive)
COc1cccc(C2C(C(=O)O)=C(CO)Oc3cc4c(cc32)OCO4)c1 (stereo not drawn)
> 100 µM (inactive)
CCCCCCCCCCCOc1ccc(C(=O)C(=O)c2ccc(OCCCCCCCCCCC)c(OCCCCCCCCCCC)c2)cc1OCCCCCCCCCCC
> 100 µM (inactive)
Cn1cc2ccccc2c1-c1nc(F)nc(Oc2ccc3c(c2)CC[C@@H]2C3CC[C@]3(C)C(O)CCC23)n1 (stereo partly drawn)
20.2 µM (inactive)

Ask: Look up GI50: `COc1cc(Cc2nccc3cc(OC)c(OC)cc23)c(C(C)=O)cc1OC`
Result: 56.9 µM (inactive)

Ask: Same thing, different molecule: `Clc1ccc2c(NCCCCCCNc3ccnc4cc(Cl)ccc34)ccnc2c1`
Result: 1.99 µM (inactive)

Ask: Same thing, different molecule: `CC[C@@]1(O)C(=O)OCc2c1cc1n(c2=O)Cc2cc3cc4c(cc3nc2-1)OCO4`
Result: 0.0121 µM (active)

Ask: Same thing, different molecule: `Cc1c(N(Cc2ccccc2)Cc2ccccc2)nc(S(C)(=O)=O)nc1S(C)(=O)=O`
Result: 1.74 µM (inactive)

Ask: Same thing, different molecule: NC1=NCN(C2OC(CO)C(O)C2O)C(=O)N1 (stereo not drawn)
Result: 14.5 µM (inactive)

Ask: Same thing, different molecule: C=C(c1ccccc1)C1(O)CCCCC1N (stereo not drawn)
Result: > 100 µM (inactive)

Ask: Same thing, different molecule: `CCOc1cc2ccc3c4cc(OC)c(OC)cc4cnc3c2cc1OCC`
Result: > 100 µM (inactive)

Ask: Same thing, different molecule: `N=C(NNS(=O)(=O)c1ccccc1)Oc1ccc(Cl)cc1`
Result: > 100 µM (inactive)

Ask: Same thing, different molecule: `COC(=O)/C([Se]c1c(C)cc(C)cc1C)=C(\[Se]c1c(C)cc(C)cc1C)C(=O)OC`
Result: > 100 µM (inactive)

Ask: Same thing, different molecule: `CCCCCCCCC(=O)NCCN(CCN)C(=O)CCCCCCCC`
Result: 5.04 µM (inactive)

Ask: Same thing, different molecule: `COc1cccc2c1c1ccc3c(c1n2C)C(=O)C=CC3=O`
Result: 63.4 µM (inactive)

Ask: Same thing, different molecule: `COc1cc(/C=C2\CCC/C(=C\c3ccc(O)c(OC)c3)C2=O)ccc1O`
Result: 15.2 µM (inactive)

Ask: Same thing, different molecule: `CN(C)/N=N/c1ccc([N+](=O)[O-])cc1C(N)=O`
Result: > 100 µM (inactive)

Ask: Same thing, different molecule: CC(C)N(C(=O)C12C3C4C5C3C1(C(=O)N(C(C)C)C(C)C)C5(C#N)C42)C(C)C (stereo not drawn)
Result: > 100 µM (inactive)
